Molecular target: T1, soluble extracellular domain of HER2/neu (ECD) (UniProt P04626 23-652, limits assumed)
T1 construct: extracellular domain; Immobilized on the IAsys microcuvette; also called soluble HER2/neu antigen
Assay: IAsys optical biosensor, HER2/neu ECD immobilized on the cuvette
pKd: −log10 of the molar value.
measurementName: pKd

RANTES.Her2.IgG3 (other) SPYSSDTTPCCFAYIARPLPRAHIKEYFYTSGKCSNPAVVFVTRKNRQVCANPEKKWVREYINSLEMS; 7.28

The measurements presented in this section are drawn from patent US20030171551A1.
